test system: Wnt5a (protein binding on small-molecule microarray); test: small molecules binding Wnt5a protein – biophysical, small-molecule microarray, 635/667 nm fluorescence, primary screen (AID 1142); conditions: 635 nm fluorescence, higher = more signal;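 note: fluorescence read at 667 nm with signal to noise per printed feature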
Quick reference for composite z-score among some compounds
Give only the figure.

# compound, composite z-score
data = [
    ("COCCCNC(=O)[C@@H]1c2ccccc2C(=O)N(Cc2cc(F)cc(C(F)(F)F)c2)[C@H]1c1ccc(CO)cc1", -0.575),
    ("CC(C)C(CO)N1C(=O)[C@@H]2[C@H]3C(=O)OCC=C[C@H]3OC23C=CCN(CCN2CCOCC2)C(=O)[C@@H]13 (some centres undefined)", -0.406),
]

// lookup composite z-score for CC(C)CCC[C@@H](C)[C@H]1CC[C@@]2(C)C3=C(CC[C@]12C)[C@@]1(C)CC[C@H](OC(=O)C(C)(C)C)C(C)(C)C1CC3 (some centres undefined)
0.228

Can you share its composite z-score? I mean this compound: `C[N+](C)(C)CCCCCCNC(=O)[C@@H]1C[C@@H]2C(=O)NCC(=O)N2[C@@H]1c1cccc(OCCO)c1`
0.338

Consider the compound shown here: `O=C(NCc1ccccc1)[C@]1(Cc2ccccc2)N=C(c2ccc(OCCCO)cc2)O[C@@H]1c1ccccc1` What is its recorded composite z-score?
0.53

Form field: reported composite z-score of `CC(C)N1C(=O)c2ccccc2[C@](C)(C(=O)O)[C@@H]1c1ccc(CO)cc1`
-0.654

Given the compound `COC(=O)[C@@]1(Cc2ccc(F)cc2)[C@H]2c3cc(C(=O)N(C)C)n(CCSCCO)c3C[C@H]2CN1C(=O)c1ccccc1` , what is its reported composite z-score?
-0.0292

Look up composite z-score for this compound: `C=CCN1C(=O)[C@@]2(O[C@@H](CCO)[C@H]([Si](C)(C)c3ccc(OC)cc3)[C@H]2C)c2cc(NC(=O)[C@H](C)O)ccc21`
0.442

Value lookup for composite z-score; key = `COc1ccc(C#Cc2ccc3c(c2)[C@]2(C(=O)N3)[C@H](C(N)=O)[C@H]3C(=O)O[C@H](c4ccccc4)[C@H](c4ccccc4)N3[C@@H]2c2ccc(O)cc2)cc1`
0.138
